Target: CAMKIIδ (Homo sapiens, UniProt Q13557)
pIC50: −log10 of the molar value.
Assay metric: pIC50

Noted for O=C1NC(=O)[C@@H](c2cn3c4c(cccc24)CCC3)[C@@H]1c1c[nH]c2ccccc12 (single isomer, unassigned) : its pIC50 reads ~5.00

====

Target: c-Met (Homo sapiens, UniProt P08581)
Sequence (P08581 25-1390): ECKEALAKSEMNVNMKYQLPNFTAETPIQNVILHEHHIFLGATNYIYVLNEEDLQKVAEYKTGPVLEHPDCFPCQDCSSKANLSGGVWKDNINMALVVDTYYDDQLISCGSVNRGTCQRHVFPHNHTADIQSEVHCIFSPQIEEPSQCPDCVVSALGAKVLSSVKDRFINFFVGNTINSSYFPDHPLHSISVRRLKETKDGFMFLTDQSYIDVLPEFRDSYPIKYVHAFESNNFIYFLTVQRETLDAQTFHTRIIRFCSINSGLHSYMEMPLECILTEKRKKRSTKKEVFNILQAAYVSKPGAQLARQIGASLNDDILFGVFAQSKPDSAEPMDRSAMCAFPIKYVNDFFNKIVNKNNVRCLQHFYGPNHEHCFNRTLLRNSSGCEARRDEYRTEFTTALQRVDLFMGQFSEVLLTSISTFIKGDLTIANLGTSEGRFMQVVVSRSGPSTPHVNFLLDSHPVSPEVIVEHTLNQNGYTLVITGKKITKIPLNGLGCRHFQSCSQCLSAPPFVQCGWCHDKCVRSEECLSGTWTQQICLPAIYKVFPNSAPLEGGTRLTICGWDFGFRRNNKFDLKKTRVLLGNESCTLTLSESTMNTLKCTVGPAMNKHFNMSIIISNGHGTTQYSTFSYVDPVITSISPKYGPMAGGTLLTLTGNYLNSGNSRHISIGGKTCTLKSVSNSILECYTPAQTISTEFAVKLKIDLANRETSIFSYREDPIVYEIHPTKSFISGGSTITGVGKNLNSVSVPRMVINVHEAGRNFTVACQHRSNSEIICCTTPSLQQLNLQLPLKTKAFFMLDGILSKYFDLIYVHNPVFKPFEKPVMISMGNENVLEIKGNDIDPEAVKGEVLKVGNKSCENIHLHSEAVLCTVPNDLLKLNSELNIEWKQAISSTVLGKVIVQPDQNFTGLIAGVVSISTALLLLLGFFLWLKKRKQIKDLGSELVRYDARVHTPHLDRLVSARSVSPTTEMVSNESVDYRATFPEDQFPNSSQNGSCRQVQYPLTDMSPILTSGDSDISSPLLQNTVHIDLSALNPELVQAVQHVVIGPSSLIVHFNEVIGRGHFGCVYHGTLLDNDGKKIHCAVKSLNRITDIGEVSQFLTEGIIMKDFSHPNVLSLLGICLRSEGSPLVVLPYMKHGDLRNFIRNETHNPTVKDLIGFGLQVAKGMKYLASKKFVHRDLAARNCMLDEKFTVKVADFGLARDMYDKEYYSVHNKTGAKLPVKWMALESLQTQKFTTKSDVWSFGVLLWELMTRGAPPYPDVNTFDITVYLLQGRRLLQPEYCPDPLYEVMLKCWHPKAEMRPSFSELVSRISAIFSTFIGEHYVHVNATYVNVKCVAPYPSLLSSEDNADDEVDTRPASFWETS
Test: Kinase inhibition, c-Met
Conditions: read-out: inhibitory constant (Ki)
Procedure: (−)-trans-3-(5,6-dihydro-4H-pyrrolo[3,2,1-ij]quinolin-1-yl)-4-(1H-indol-3-yl)pyrrolidine-2,5-dione was assessed for its activity to inhibit a large panel (n=230) of human kinases.
Assay metric: Ki

Reported c-Met (Homo sapiens, UniProt P08581) Ki for item O=C1NC(=O)[C@@H](c2cn3c4c(cccc24)CCC3)[C@@H]1c1c[nH]c2ccccc12 (single isomer, unassigned) was ~360 nM

====

Molecular target: Flt4 (Homo sapiens)
Sequence (P35916 25-1363): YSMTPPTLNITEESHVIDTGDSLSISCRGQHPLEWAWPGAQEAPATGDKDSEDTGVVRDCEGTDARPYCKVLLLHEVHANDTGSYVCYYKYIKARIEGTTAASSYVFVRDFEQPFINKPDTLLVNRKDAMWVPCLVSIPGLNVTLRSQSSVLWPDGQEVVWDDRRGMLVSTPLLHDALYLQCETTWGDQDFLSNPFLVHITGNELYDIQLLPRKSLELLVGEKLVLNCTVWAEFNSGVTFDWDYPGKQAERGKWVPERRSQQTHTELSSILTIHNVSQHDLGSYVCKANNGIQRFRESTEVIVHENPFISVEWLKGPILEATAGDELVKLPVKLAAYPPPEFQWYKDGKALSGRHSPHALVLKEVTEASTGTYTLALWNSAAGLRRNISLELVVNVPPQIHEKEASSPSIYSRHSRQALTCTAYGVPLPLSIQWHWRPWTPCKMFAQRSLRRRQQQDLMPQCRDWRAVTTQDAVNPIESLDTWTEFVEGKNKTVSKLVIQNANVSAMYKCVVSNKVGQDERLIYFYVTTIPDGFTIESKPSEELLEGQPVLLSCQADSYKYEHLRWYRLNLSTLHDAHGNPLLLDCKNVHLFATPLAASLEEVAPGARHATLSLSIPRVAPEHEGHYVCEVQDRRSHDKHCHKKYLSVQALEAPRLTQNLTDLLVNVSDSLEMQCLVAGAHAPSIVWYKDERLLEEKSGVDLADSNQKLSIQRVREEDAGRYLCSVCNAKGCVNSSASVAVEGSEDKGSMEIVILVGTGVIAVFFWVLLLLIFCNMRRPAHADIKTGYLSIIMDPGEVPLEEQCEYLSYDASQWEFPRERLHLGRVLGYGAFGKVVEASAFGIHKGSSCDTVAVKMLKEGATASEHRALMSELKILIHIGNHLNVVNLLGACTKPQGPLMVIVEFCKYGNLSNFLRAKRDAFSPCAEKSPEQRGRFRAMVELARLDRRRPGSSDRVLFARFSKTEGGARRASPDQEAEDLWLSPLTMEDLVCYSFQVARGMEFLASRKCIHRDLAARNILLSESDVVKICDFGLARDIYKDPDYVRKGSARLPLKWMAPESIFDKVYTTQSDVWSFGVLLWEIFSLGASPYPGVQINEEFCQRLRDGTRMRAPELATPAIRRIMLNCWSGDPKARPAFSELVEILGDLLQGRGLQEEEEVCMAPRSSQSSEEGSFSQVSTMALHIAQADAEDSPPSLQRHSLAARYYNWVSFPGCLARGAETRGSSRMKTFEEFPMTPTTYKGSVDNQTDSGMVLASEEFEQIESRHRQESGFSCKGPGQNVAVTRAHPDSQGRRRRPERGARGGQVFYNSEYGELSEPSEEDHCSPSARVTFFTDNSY
pIC50: −log10 of the molar value.
Assay metric: pIC50

Noted for O=C1NC(=O)[C@@H](c2cn3c4c(cccc24)CCC3)[C@@H]1c1c[nH]c2ccccc12 (single isomer, unassigned) : its pIC50 reads ~4.80
